Measured pKi accompanies every entry in the list below.
Molecular target: Sig-2R, sigma-2 receptor (Rattus norvegicus, UniProt Q5U3Y7)
Sequence (Q5U3Y7 whole entry): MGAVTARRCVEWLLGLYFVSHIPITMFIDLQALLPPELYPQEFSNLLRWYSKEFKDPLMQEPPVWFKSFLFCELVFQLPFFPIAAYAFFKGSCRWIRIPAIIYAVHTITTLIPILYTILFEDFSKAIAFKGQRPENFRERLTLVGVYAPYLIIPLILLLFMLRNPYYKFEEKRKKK
pKi: −log10 of the molar value.
Endpoint label: pKi

CCCCCCCNCCCc1ccccc1 : 6.60
CCCCCCCCCCCCNCCCc1ccccc1 : 5.44
CCCCCCCCCCCCNCCCc1ccc([N+](=O)[O-])cc1 : 6.57
CCCCCCCNCCCc1ccc([N+](=O)[O-])cc1 : 7.85
